Assay: Single oral dose pharmacokinetic (PK) study in dogs, fasted and fed
Format: in vivo
Conditions: both sexes, dog, in vivo, po, 15 mg/kg, 15 mg/kg oral suspension, fed, day 9, mean, read-out: Cmax, Day 9 (Fed)
Listed below: Cmax values for each entry.

{"columns": ["Compound", "Cmax (ng/mL)"],
 "data": [
  ["Br.C=CC(=O)Nc1cc(C)ccc1Nc1nc(Nc2cc(OC)ncc2C)ncc1C(F)(F)F [Compound 5, Form A]", 826],
  ["C=CC(=O)Nc1cc(C)ccc1Nc1nc(Nc2cc(OC)ncc2C)ncc1C(F)(F)F.Cl [Compound 4, Form A]", 818],
  ["C=CC(=O)Nc1cc(C)ccc1Nc1nc(Nc2cc(OC)ncc2C)ncc1C(F)(F)F.O=P(O)(O)O [Compound 2, Form A]", 790]
]}

Data provenance is patent US10202364B2.
